# System: HCV replicon 2B
# method summary: microbe, parasite or virus in culture
# Format: cell-based, Hepatitis C virus (HCV)
# reported conditions: read-out: 2B IC50; HCV replicon 2B; Replicon Assay A
IC50 listing for selected molecules.
Number only, in nM; omit the unit.

Example cases with answers are listed next.
molecule	IC50 / nM
COC(=O)N[C@H](C(=O)N1CCC[C@H]1c1nc(-c2cc(F)c3c(c2)OC(c2ccc(C4CC4)s2)n2c-3cc3cc(-c4c[nH]c([C@@H]5C[C@H]6C[C@H]6N5C(=O)[C@@H](NC(=O)OC)C(C)C)n4)ccc32)c[nH]1)C(C)C (single isomer, unassigned) [Compound 720]	3.99
COC(=O)N[C@H](C(=O)N1CCC[C@H]1c1ncc(-c2ccc3c(c2)OC(c2cc4sccc4s2)n2c-3cc3cc(-c4c[nH]c([C@@H]5C[C@H]6C[C@H]6N5C(=O)[C@@H](NC(=O)OC)C(C)C)n4)ccc32)[nH]1)C(C)C (single isomer, unassigned) [Compound 718]	0.82
COCc1ccc(C2Oc3cc(-c4cnc([C@@H]5CCCN5C(=O)[C@@H](NC(=O)OC)C(C)C)[nH]4)cc(F)c3-c3cc4cc(-c5cnc([C@@H]6CCCN6C(=O)[C@@H](NC(=O)OC)[C@@H]6C[C@@H](C)O[C@@H](C)C6)[nH]5)ccc4n32)s1 (single isomer, unassigned) [Compound 533]	0.429
COC(=O)NC(C(=O)N1CCC[C@H]1c1ncc(-c2ccc3c(c2)cc2n3C(c3ccc(CC4CC4)s3)Oc3cc(-c4cnc([C@@H]5CCCN5C(=O)[C@@H](NC(=O)OC)C(C)C)[nH]4)cc(F)c3-2)[nH]1)C1CCOC(C)(C)C1 (single isomer, unassigned) [Compound 410]	0.0041
CCCc1ccc(C2Oc3cc(-c4cnc([C@@H]5CCCN5C(=O)[C@@H](NC(=O)OC)C(C)C)[nH]4)cc(F)c3-c3cc4cc(-c5cnc([C@@H]6CCCN6C(=O)C(NC(=O)OC)C6CCOC(C)(C)C6)[nH]5)ccc4n32)s1 (single isomer, unassigned) [Compound 567]	0.011
COC(=O)N[C@H](C(=O)N1CCC[C@H]1c1ncc(-c2cc(C)c3c(c2)OC(c2ccc(C4CC4)s2)n2c-3cc3cc(-c4cnc([C@@H]5C[C@H]6C[C@H]6N5C(=O)[C@@H](NC(=O)OC)C(C)C)[nH]4)ccc32)[nH]1)C(C)C (single isomer, unassigned) [Compound 755]	0.023

Please look at the following molecule next.
IC50 measured on COC(=O)NC(C(=O)N1CCC[C@H]1c1ncc(-c2ccc3c(c2)cc2n3C(c3ccc(C4CC4)s3)Oc3cc(-c4cnc([C@@H]5CCCN5C(=O)[C@@H](NC(=O)OC)C(C)C)[nH]4)cc(F)c3-2)[nH]1)C1CC(C)(C)OC(C)(C)C1 (single isomer, unassigned) [Compound 420] = 6.03

----------
# Tested on: HCV replicon 1B
# method summary: microbe, parasite or virus in culture
# Format: cell-based, Hepatitis C virus (HCV)
# reported conditions: Hepatitis C virus, HCV replicon 1B; Replicon Assay B
readout kind: log10 IC50 (log10 of the value in pM)
Record value = log10 of IC50 given in pM.

log10 IC50 measured on COC(=O)N[C@H](C(=O)N1C[C@H](F)C[C@H]1c1cnc(-c2ccc3c(c2)cc2n3C(c3cc4ccccc4s3)Oc3cc(-c4cnc([C@@H]5C[C@@H](F)CN5C(=O)[C@@H](NC(=O)OC)C(C)C)[nH]4)ccc3-2)[nH]1)C(C)C (single isomer, unassigned) [Compound 805] = 0.70

log10 IC50 measured on COC(=O)N[C@H](C(=O)N1CCC[C@H]1c1ncc(-c2cc(C)c3c(c2)OC(c2ccc(C4CC4)s2)n2c-3cc3cc(-c4cnc([C@@H]5C[C@H]6C[C@H]6N5C(=O)[C@@H](NC(=O)OC)C(C)C)[nH]4)ccc32)[nH]1)C(C)C (single isomer, unassigned) [Compound 754] = 0.41

log10 IC50 measured on COC(=O)NC(C(=O)N1CCC[C@H]1c1ncc(-c2ccc3c(c2)cc2n3C(c3ccc(CC4CC4)s3)Oc3cc(-c4cnc([C@@H]5CCCN5C(=O)[C@@H](NC(=O)OC)C(C)C)[nH]4)cc(F)c3-2)[nH]1)C1CCOC(C)(C)C1 (single isomer, unassigned) [Compound 407] = 0.28

log10 IC50 measured on COC(=O)N[C@H](C(=O)N1CCC[C@H]1c1ncc(-c2ccc3c(c2)OC(c2ccc(C4CC4)s2)n2c-3c(F)c3cc(-c4cnc([C@@H]5C[C@H]6C[C@H]6N5C(=O)[C@@H](NC(=O)OC)C(C)C)[nH]4)ccc32)[nH]1)C(C)C (single isomer, unassigned) [Compound 611] = 0.15

log10 IC50 measured on COC(=O)N[C@H](C(=O)N1CCC[C@H]1c1ncc(-c2cc(F)c3c(c2)OC(c2cc4ccccc4s2)n2c-3cc3cc(-c4cnc([C@@H]5C[C@H]6C[C@H]6N5C(=O)[C@@H](NC(=O)OC)C(C)C)[nH]4)ccc32)[nH]1)C(C)C (single isomer, unassigned) [Compound 615] = 0.28

log10 IC50 measured on COC(=O)N[C@H](C(=O)N1CCC[C@H]1c1ncc(-c2ccc3c(c2)O[C@@H](c2cc4c(s2)CCC4)n2c-3cc3cc(-c4cnc([C@@H]5CCCN5C(=O)[C@@H](NC(=O)OC)C(C)C)[nH]4)ccc32)[nH]1)C(C)C (single isomer, unassigned) [Compound 600] = 2.27

log10 IC50 measured on COC(=O)N[C@H](C(=O)N1CCC[C@H]1c1ncc(-c2ccc3c(c2)OC(c2ccc(C4CC4)s2)n2c-3c(F)c3cc(-c4cnc([C@@H]5C[C@H]6C[C@H]6N5C(=O)[C@@H](NC(=O)OC)C5C[C@@H](C)O[C@@H](C)C5)[nH]4)ccc32)[nH]1)C(C)C (single isomer, unassigned) [Compound 406] = 0.45

----------
log10 of IC50 listing for selected molecules.
# System: HCV replicon 1A
# method summary: microbe, parasite or virus in culture
# Format: cell-based, Hepatitis C virus (HCV)
# reported conditions: HCV replicon 1A; Replicon Assay A
Record value = log10 of IC50 given in pM.

Example cases with answers are listed next.
molecule	data value
COC(=O)N[C@H](C(=O)N1CCC[C@H]1c1ncc(-c2cc(F)c3c(c2)OC(c2cc(C)c(C)s2)n2c-3cc3cc(-c4cnc([C@@H]5C[C@@H](F)CN5C(=O)[C@@H](NC(=O)OC)C(C)C)[nH]4)ccc32)[nH]1)C(C)C (single isomer, unassigned) [Compound 515]	1.01
COC(=O)N[C@H](C(=O)N1CCC[C@H]1c1ncc(-c2ccc3c(c2)OC(c2cc4ccccc4s2)n2c-3cc3cc(-c4cnc([C@@H]5C[C@H]6C[C@H]6N5C(=O)[C@@H](NC(=O)OC)C(C)C)[nH]4)ccc32)[nH]1)C(C)C (single isomer, unassigned) [Compound 608]	0.54
CCc1ccc(C2Oc3cc(-c4cnc([C@@H]5CCCN5C(=O)[C@@H](NC(=O)OC)C(C)C)[nH]4)cc(C)c3-c3cc4cc(-c5cnc([C@@H]6CCCN6C(=O)C(NC(=O)OC)C6C[C@@H](C)O[C@H](C)C6)[nH]5)ccc4n32)s1 (single isomer, unassigned) [Compound 546]	1.14

Reported log10 of IC50 (HCV replicon 1A) for entry COC(=O)N[C@H](C(=O)N1CCC[C@H]1c1ncc(-c2cc(F)c3c(c2)OC(c2cc4c(s2)CCC4)n2c-3cc3cc(-c4cnc([C@@H]5C[C@H]6C[C@H]6N5C(=O)[C@@H](NC(=O)OC)C5C[C@@H](C)O[C@@H](C)C5)[nH]4)ccc32)[nH]1)C(C)C (single isomer, unassigned) [Compound 553] is 1.64

Reported log10 of IC50 (HCV replicon 1A) for entry CCc1ccc(C2Oc3cc(-c4cnc([C@@H]5CCCN5C(=O)[C@@H](NC(=O)OC)C(C)C)[nH]4)ccc3-c3c(F)c4cc(-c5cnc([C@@H]6CCCN6C(=O)[C@@H](NC(=O)OC)C(C)C)[nH]5)ccc4n32)s1 (single isomer, unassigned) [Compound 603] is 0.51

Reported log10 of IC50 (HCV replicon 1A) for entry COC(=O)N[C@H](C(=O)N1CCC[C@H]1c1ncc(-c2ccc3c(c2)OC(c2cc4sccc4s2)n2c-3cc3cc(-c4c[nH]c([C@@H]5C[C@H]6C[C@H]6N5C(=O)[C@@H](NC(=O)OC)C(C)C)n4)ccc32)[nH]1)C(C)C (single isomer, unassigned) [Compound 718] is 0.38

Reported log10 of IC50 (HCV replicon 1A) for entry COC(=O)N[C@H](C(=O)N1CCC[C@H]1c1ncc(-c2cc(F)c3c(c2)OC(c2ccc(C(F)(F)F)s2)n2c-3cc3cc(-c4cnc([C@@H]5CCCN5C(=O)[C@@H](NC(=O)OC)C5CCOCC5)[nH]4)ccc32)[nH]1)C(C)C (single isomer, unassigned) is 0.20
